Tested on: SW-620 colon
Experimental Protocol: NCI tumour cell line growth inhibition, 48 h
Quick list: TGI per entry.
Readout Label: TGI (µM)

| Input Smiles | Target Entity | Readout Label | Qualifier Sign | Assay Value |
| --- | --- | --- | --- | --- |
| COc1ccc2c3c1O[C@H](c1ccc(O)cc1)[C@H]3[N+](C)(C)CC2 | SW-620 colon | TGI | > | 100 |
| CN1CCc2nc3sc(C(N)=O)c(N)c3c(-c3cccs3)c2C1 | SW-620 colon | TGI | > | 100 |
| CC(C)(C)c1cc2nc(c1)C(C(F)(F)F)(C(F)(F)F)OB(Br)OC2(C(F)(F)F)C(F)(F)F | SW-620 colon | TGI | = | 15.8 |
| N#CCCNc1nonc1-c1nc2ccccc2n1CC(=O)c1ccc(NC(=O)[C@@H](N)CCCCN)cc1 | SW-620 colon | TGI | > | 100 |
| Fc1ccc(/C=N/n2c(-c3ccc(F)c(Cl)c3)n[nH]c2=S)cc1 | SW-620 colon | TGI | > | 100 |
| CC1=C(C(=O)Nc2ccc(Cl)c(Cl)c2)C(c2ccc([N+](=O)[O-])cc2)C(C(=O)Nc2ccc(Cl)c(Cl)c2)=C(C)N1 | SW-620 colon | TGI | = | 12.4 |
| Cc1[nH]c(-c2cc(N)ccc2Cl)c2c1C(=O)CCCC2 | SW-620 colon | TGI | = | 55.6 |
| CCOC(=O)Cn1nnc2ccc(Nc3nc4ccccc4nc3-c3ccccc3)cc21 | SW-620 colon | TGI | > | 100 |
| c1ccc(N=C2c3ccsc3C(=Nc3ccccc3)c3ccsc32)cc1 | SW-620 colon | TGI | = | 3.93 |
| COc1cc2ncc3c(nc4sccn43)c2cc1OC | SW-620 colon | TGI | > | 100 |

---

Tested on: HCT-116 colon
Experimental Protocol: NCI tumour cell line growth inhibition, 48 h

| Molecule | Target Entity | GI50 |
| --- | --- | --- |
| CCc1c(C)nc2sc3c(N)ncnc3c2c1C | HCT-116 colon | > 25 µM |
| Fc1ccc(/C=N/n2c(-c3ccc(F)c(Cl)c3)n[nH]c2=S)cc1 | HCT-116 colon | 16.3 µM |
| COc1cc(/C=C/c2ccc3c(Br)cc(Br)c(O)c3n2)ccc1O | HCT-116 colon | 0.532 µM |
| c1cc(N2CCN(c3ccc(C4=NCCCN4)cc3)CC2)ccc1C1=NCCCN1 | HCT-116 colon | 50.2 µM |
| COc1cccc(Oc2ccccc2NC(=O)CNC(=O)c2cccc3ccccc23)c1 | HCT-116 colon | 0.0962 µM |
| C[C@@H]1Cc2cc(O)ccc2[C@H]2CC[C@]3(C)/C(=C/COCCN(C)C)CC[C@H]3[C@H]12 (tested in a mixture with another compound) | HCT-116 colon | 0.245 µM |
| COc1ccc(Nc2ccnc(N3CCN(c4ccnc5cc(Cl)ccc45)CC3)n2)cc1 | HCT-116 colon | 0.485 µM |
| Oc1c(-c2cc(C(F)(F)F)[nH]n2)cc(Cl)c(OCc2ccc(Cl)cc2)c1-c1ccc(Cl)c(C(F)(F)F)c1 | HCT-116 colon | 0.159 µM |
| COc1ccc2c(-c3ccnc(Nc4cccc(OC(F)(F)F)c4)n3)cnn2n1 | HCT-116 colon | 1.03 µM |
| FC(F)(F)c1cccc(-c2nn3ncccc3c2-c2ccnc(Nc3ccc4c(c3)OCCO4)n2)c1 | HCT-116 colon | 9.75 µM |

---

Test system: DMS 273 small cell lung
Experimental Protocol: NCI tumour cell line growth inhibition, 48 h
Quick list: TGI per entry.

| Molecule | Qualifier Sign | TGI (µM) |
| --- | --- | --- |
| COc1ccc(OC(=O)CC2Cc3cc(OC)c(OC)c(OC)c3-c3ccc(SC)c(=O)cc32)cc1 (stereo not drawn) | > | 100 |
| N[C@H](COCc1ccccc1)c1ccccc1 | = | 50 |
| CC1=NN(c2ccccc2)C(=O)/C1=C\c1ccc([N+](=O)[O-])cc1 | = | 62.7 |

---

Tested on: HT29 colon
Experimental Protocol: NCI tumour cell line growth inhibition, 48 h
Quick list: GI50 per entry.
Readout Label: GI50

| Compound | Target Entity | Assay Value |
| --- | --- | --- |
| CC1C=CC(OC(=O)C(C)(O)CCC(O)(C(=O)OC2CC(O)C(C(C)C)CC2(C)O)C(C)C)(C(C)C)CC1 (stereo unspecified) | HT29 colon | 599 nM |
| Cc1cc(C)c(C2CNCc3cc4c(cc32)CNCC4c2c(C)cc(C)cc2C)c(C)c1 (stereo unspecified) | HT29 colon | 2.75 µg/mL |
| C[n+]1c2ccccc2nc2c(N)cc(N)cc21 | HT29 colon | 15300 nM |
| Oc1cccc2c1NCCC2 | HT29 colon | 5190 nM |
| COc1cc(C(=O)Nc2cc(O)c(CC=C(C)C)c(O)c2)cc2c1O[C@]1(C)CC[C@@H](O)C(C)(C)[C@H]1C2 | HT29 colon | 1900 nM |
| COc1ccc(/C=C(\C)[N+](=O)[O-])cc1OC | HT29 colon | 2200 nM |
| CC(C)C[C@H](NC(=O)CCn1ccc2ccccc2c1=O)B(O)O | HT29 colon | 3680 nM |
| CC1c2ccccc2CCN1c1ccc(CO)c(Cl)c1 (stereo unspecified) | HT29 colon | 383 nM |
| O=C(CN1N=C(c2ccc(F)cc2)CCC1=O)Nc1nc2ccccc2s1 | HT29 colon | 3320 nM |
| COc1ccc2c(-c3ccnc(Nc4cccc(OC(F)(F)F)c4)n3)cnn2n1 | HT29 colon | 912 nM |
| CCN1C(=O)N(CC)C2C1NN=c1s/c(=C\c3ccc(F)cc3)c(=O)n12 (stereo unspecified) | HT29 colon | 61.4 nM |

---

System: SK-MEL-2 melanoma
Experimental Protocol: NCI tumour cell line growth inhibition, 48 h; in the data active = GI50 below about 0.43 µM; inactive = the rest
Classes used: t for active, f for inactive

| Molecule | Class |
| --- | --- |
| CSc1ccc(C2=NN(C(C)=O)C(c3ccc(-c4ccc(Cl)cc4)o3)C2)cc1 (centres undefined) | f |
| COc1ccc(/C=C(\C)[N+](=O)[O-])cc1OC | f |
| CCN1C(=O)N(CC)C2C1NN=c1s/c(=C\c3ccc(F)cc3)c(=O)n12 (centres undefined) | t |
| COc1cc(-c2nn(-c3cccc(NC(=O)CCN4CCN(Cc5ccccc5)CC4)c3)cc2-c2ccncc2)ccc1Cl | f |
| O=C1C(OCCOc2ccccc2)=C(OCCOc2ccccc2)C(=O)c2ccccc21 | f |
| C/C(=N\O)c1cccc(Nc2cc(-n3ccnc3)c3ccccc3n2)c1 | f |
| Nc1n[nH]c2ccc([C@@H]3Nc4cc5c(cc4[C@H]4C6CCC(C6)[C@@H]34)C(=O)NC5)cc12 (some centres undefined) | f |
| CCOC(=O)c1cc2c(cc1Cl)SC(=Nc1ccccc1)N(S(=O)(=O)c1ccc(Br)s1)S2(=O)=O | f |
| COc1ccc2c(-c3ccnc(Nc4cccc(OC(F)(F)F)c4)n3)cnn2n1 | f |

---

Quick list: TGI per entry.
Test system: HCT-116 colon
Experimental Protocol: NCI tumour cell line growth inhibition, 48 h

| Compound | Qualifier Sign | TGI / µM |
| --- | --- | --- |
| COc1ccc2c(-c3ccnc(Nc4cccc(OC(F)(F)F)c4)n3)cnn2n1 | = | 3.96 |
| O=C(O)c1ccccc1NC(=S)c1ccccc1 | > | 100 |
| COc1cc2c(cc1F)C(c1ccccc1Cl)=Nc1c(n[nH]c1C)N2 | = | 18.4 |
| c1ccc(CC2COC(c3cccs3)=N2)cc1 (stereo unspecified) | > | 100 |
| CN(C)CCc1c2c(nc3ccccc13)C(=O)c1cccnc1C2=O | = | 0.344 |
| Cc1ccccc1C(=O)C1CCCCC1O (stereo unspecified) | > | 100 |

---

Tested on: MDA-N
Experimental Protocol: NCI tumour cell line growth inhibition, 48 h
Quick list: TGI per entry.

| Molecule | TGI |
| --- | --- |
| COc1ccc(NC(=O)C(=O)/C=C(\O)c2ccccc2)cc1 | > 10 µM |
| CC(=O)O[C@H]1CC[C@@]2(C)C(=CC[C@@H]3[C@@H]2CC[C@]2(C)c4nc(Cl)ccc4C[C@@H]32)C1 | > 100 µM |
| COc1ccc(C(=O)/C=C/c2ccc(OCC#N)cc2)cc1 | > 10 µM |
| COC(=O)C1CCC(=O)N1C(c1ccc2c(c1)OCO2)c1cc(OC)c(OC)c(OC)c1 (stereo unspecified) | > 100 µM |
| N#C/C(C(=S)NCc1ccccc1)=C(/N)N1CCCC1 | > 100 µM |
| CC1CC(C#N)=C2NCCN2C1=O (stereo unspecified) | 31.8 µM |
| COc1cccc(/N=N/C(=NNC(=O)c2ccc(C)cc2)c2ccc(N(C)C)cc2)c1 | > 100 µM |
| CN(C)CCc1c2c(nc3ccccc13)C(=O)c1cccnc1C2=O | 1.38 µM |
| N#CCCC1(CCC#N)CCCCCCCCC(CCC#N)(CCC#N)C(O)C1O (stereo unspecified) | > 100 µM |
| OC(c1cccnc1Cl)c1nc2ccccc2c2ccnc(Cl)c12 (stereo unspecified) | 4.49 µM |
| Fc1cccc(F)c1C(Nc1nncs1)Nc1nncs1 | > 100 µM |
| O=c1[nH]c2nc3ccccc3c(=O)n2/c1=C/c1ccco1 | > 100 µM |
| Nc1nc(N)c(CCCCc2ccccc2)c(N)n1 | > 100 µM |
| CC(C)(C)NC(=O)CCC1C(C(=O)NC(C)(C)C)C2(Cl)C(Cl)=C(Cl)C1(Cl)C2(Cl)Cl (stereo unspecified) | > 100 µM |
| COC(=O)Cc1c(-c2c(CC(=O)OC)c3ccccc3n2C2OC(COC(C)=O)C(OC(C)=O)C(OC(C)=O)C2OC(C)=O)[nH]c2ccccc12 (stereo unspecified) | > 100 µM |
| COc1cc(O)c2c(=O)c(OC)c(-c3ccc(OC)c(OC)c3)oc2c1 | > 100 µM |
| Clc1ccc2oc(CCc3ccccc3)nc2c1 | > 100 µM |
| CC[C@@]1(O)C(=O)OCc2c1cc1n(c2=O)Cc2c-1nc1ccccc1c2/C=N\NC(=O)C(N)CCSC (stereo partly specified) | > 100 µM |
| CCN(CC)c1nnc(CCCCCCCCc2nnc(N(CC)CC)o2)o1 | > 100 µM |
| CC(=O)OCC1OC(OCCCOP(=S)(OCCC#N)OCC2OC(n3ccc(N)nc3=O)C(OC(=O)c3ccccc3)C2OC(=O)c2ccccc2)C(OC(C)=O)C(OC(C)=O)C1OC(C)=O (stereo unspecified) | > 100 µM |
| c1ccc(CC2COC(c3cccs3)=N2)cc1 (stereo unspecified) | > 100 µM |
